All figures here come from patent US20260102383A1.

assayedTarget: human LPAR1 (Homo sapiens)
Construct: host or cells: TangoEDG2-bla U2OS cells
Sequence (Q92633 whole entry): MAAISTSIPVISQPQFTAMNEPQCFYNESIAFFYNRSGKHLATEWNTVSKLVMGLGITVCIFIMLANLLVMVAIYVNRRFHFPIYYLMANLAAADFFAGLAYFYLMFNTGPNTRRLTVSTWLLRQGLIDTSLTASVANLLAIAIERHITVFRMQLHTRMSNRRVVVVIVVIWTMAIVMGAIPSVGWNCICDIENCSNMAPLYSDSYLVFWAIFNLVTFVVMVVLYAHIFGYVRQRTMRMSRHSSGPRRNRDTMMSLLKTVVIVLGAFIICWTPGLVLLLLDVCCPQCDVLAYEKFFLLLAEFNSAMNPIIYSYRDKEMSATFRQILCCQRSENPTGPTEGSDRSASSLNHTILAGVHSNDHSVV
assayProcedure: Arrestin assay (Arrestin Reporter EDG2-bla U2OS), inhibition of LPA-stimulated signal
Type: cell-based
testConditions: TangoEDG2-bla U2OS cells expressing human LPAR1; 0.25 μM LPA; read-out: Arrestin Reporter EDG2-bla U2OS Human Merged IC50
Classify: yes (1) when IC50 is strictly less than 0.03 µM; no (0) when IC50 is not.

Please review the entries below; each comes with its answer.
1. COc1ccc([C@@H](CN2CCC(C(=O)Nc3ccc(Cl)cc3OC(F)F)(n3nccc3C(C)C)CC2)C(=O)O)cc1
yes (1)
2. CC(C)c1ccnn1C1(C(=O)Nc2ccc(Cl)cc2OC(F)F)CCN(C[C@@H](C(=O)O)c2cccnc2)CC1
yes (1)
3. CC(C)c1ccnn1C1(C(=O)Nc2ccc(Cl)cc2OC(F)F)CCN(C[C@@H](C)C(C)(C)C(=O)O)CC1
no (0)
4. CO[C@H]1CC[C@H]([C@H](CN2CCC(C(=O)Nc3ccc(Cl)cc3OC(F)F)(n3nccc3C(C)C)CC2)C(=O)O)CC1 (single isomer, unassigned)
no (0)
5. CC(C)c1ccnn1C1(C(=O)Nc2ccc(Cl)cc2OC(F)F)CCN(CC2(C(=O)O)CCN(C(=O)C[C@@H]3CCOC3)CC2)CC1
no (0)

Next molecule, please.
A record lists `CC(C)c1ccnn1C1(C(=O)Nc2ccc(Cl)cc2OC(F)F)CCN(C[C@@H](CC#N)C(=O)O)CC1` . Is its IC50 below 0.03 µM?
yes (1)
